All figures here come from ChEMBL document CHEMBL3745592.

assay: Antioxidant activity assessed as DPPH free radical scavenging activity at 25 ug/ml after 20 mins by UV-vis spectrophotometry analysis; format: physicochemical
Measured parameter: inhibition (INH) (%)
Reply numerically in %, unit not repeated.

[
  {
    "Chem smiles": "C/C(=N\\Nc1ccc(F)cc1)c1cc2c(C)cc(=O)oc2c(/C(C)=N/Nc2ccc(F)cc2)c1O",
    "Unit label": "%",
    "Recorded result": 8.49
  },
  {
    "Chem smiles": "C/C(=N\\Nc1ccc(C)cc1)c1cc2c(C)cc(=O)oc2c(/C(C)=N/Nc2ccc(C)cc2)c1O",
    "Unit label": "%",
    "Recorded result": 14.29
  },
  {
    "Chem smiles": "Cc1ccc(-n2cc(C=O)c(-c3cc4c(C)cc(=O)oc4c(-c4nn(-c5ccc(C)cc5)cc4C=O)c3O)n2)cc1",
    "Unit label": "%",
    "Recorded result": 16
  },
  {
    "Chem smiles": "O=C1O[C@H]([C@@H](O)CO)C(O)=C1O",
    "Unit label": "%",
    "Recorded result": 15.08
  },
  {
    "Chem smiles": "C/C(=N\\Nc1cccc(C)c1)c1cc2c(C)cc(=O)oc2c(/C(C)=N/Nc2cccc(C)c2)c1O",
    "Unit label": "%",
    "Recorded result": 10.92
  },
  {
    "Chem smiles": "C/C(=N\\Nc1ccccc1)c1cc2c(C)cc(=O)oc2c(/C(C)=N/Nc2ccccc2)c1O",
    "Unit label": "%",
    "Recorded result": 15.03
  }
]

Inquiry: Requested field: inhibition (INH). Item: Cc1cccc(-n2cc(C=O)c(-c3cc4c(C)cc(=O)oc4c(-c4nn(-c5cccc(C)c5)cc4C=O)c3O)n2)c1
Reply text: 13.24

Inquiry: Requested field: inhibition (INH). Item: COc1ccc(-n2cc(C=O)c(-c3cc4c(C)cc(=O)oc4c(-c4nn(-c5ccc(OC)cc5)cc4C=O)c3O)n2)cc1
Reply text: 14.2

###

test system: Candida albicans; experiment: Antifungal activity against Candida albicans assessed as growth inhibition incubated for 72 hrs at 37 degC by broth dilution method; type: functional
Measured parameter: MIC90 (µg/mL)
Reply numerically in µg/mL, unit not repeated.

The examples below pair each entry with its known result.
[
  {
    "Chem smiles": "Cc1cccc(-n2cc(C=O)c(-c3cc4c(C)cc(=O)oc4c(-c4nn(-c5cccc(C)c5)cc4C=O)c3O)n2)c1",
    "MIC90 [µg/mL]": 50
  },
  {
    "Chem smiles": "COc1ccc(N/N=C(\\C)c2cc3c(C)cc(=O)oc3c(/C(C)=N/Nc3ccc(OC)cc3)c2O)cc1",
    "MIC90 [µg/mL]": 50
  },
  {
    "Chem smiles": "C/C(=N\\Nc1ccc(F)cc1)c1cc2c(C)cc(=O)oc2c(/C(C)=N/Nc2ccc(F)cc2)c1O",
    "MIC90 [µg/mL]": 75
  }
]

Inquiry: Requested field: MIC90. Item: C/C(=N\Nc1ccc(C)cc1)c1cc2c(C)cc(=O)oc2c(/C(C)=N/Nc2ccc(C)cc2)c1O
Reply text: 50

Inquiry: Requested field: MIC90. Item: Cc1cc(=O)oc2c(-c3nn(-c4ccc(F)cc4)cc3C=O)c(O)c(-c3nn(-c4ccc(F)cc4)cc3C=O)cc12
Reply text: 100

Inquiry: Requested field: MIC90. Item: Cc1ccc(-n2cc(C=O)c(-c3cc4c(C)cc(=O)oc4c(-c4nn(-c5ccc(C)cc5)cc4C=O)c3O)n2)cc1
Reply text: 50
